Data provenance is the supplement of paper PMC3334620.

Target: Stb5 (UniProt P38699)
Sequence: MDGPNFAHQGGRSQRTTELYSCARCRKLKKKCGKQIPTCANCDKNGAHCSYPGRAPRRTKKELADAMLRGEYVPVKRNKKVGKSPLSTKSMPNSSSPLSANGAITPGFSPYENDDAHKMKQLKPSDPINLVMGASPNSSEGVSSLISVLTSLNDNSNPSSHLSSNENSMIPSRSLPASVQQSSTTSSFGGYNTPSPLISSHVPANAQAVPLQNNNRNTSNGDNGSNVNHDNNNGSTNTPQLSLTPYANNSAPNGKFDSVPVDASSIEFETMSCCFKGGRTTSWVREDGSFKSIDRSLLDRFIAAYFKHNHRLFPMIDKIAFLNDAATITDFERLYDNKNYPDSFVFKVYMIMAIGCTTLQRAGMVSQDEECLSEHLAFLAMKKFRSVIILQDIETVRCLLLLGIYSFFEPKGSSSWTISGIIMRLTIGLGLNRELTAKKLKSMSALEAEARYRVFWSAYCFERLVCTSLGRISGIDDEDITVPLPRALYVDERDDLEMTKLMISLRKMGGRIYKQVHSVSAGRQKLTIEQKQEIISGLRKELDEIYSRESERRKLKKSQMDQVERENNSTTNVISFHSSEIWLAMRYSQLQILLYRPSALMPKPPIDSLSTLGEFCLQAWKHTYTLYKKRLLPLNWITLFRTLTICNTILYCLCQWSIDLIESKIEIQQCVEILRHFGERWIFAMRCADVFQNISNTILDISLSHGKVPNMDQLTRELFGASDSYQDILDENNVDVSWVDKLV
Test: PBM E-score (8-mer binding enrichment) (E-score (-0.5 to 0.5)); higher = stronger / more preferred TF binding
Conditions: protein concentration: 200 nM; construct: GST-full length
Over roughly 33,000 sequences, “E-score (-0.5 to 0.5)” has its median near -0.054; the highest 2% begin near 0.35. Shown is part of a subset that was picked to be rich in the highest values.

CHAIN	PBM E-score
AATCCTAG	-0.0194
ATTAGCTG	-0.119
CTTGGGTA	-0.128
TGTAGCAA	-0.0607
CTCCCCGC	0.248
CTAGCACC	0.336
CGCAGCAA	-0.192
ACTCCGTA	0.35
ACTCCGAG	0.202
ATCCCCCC	-0.0842
AGGAGCTA	-0.0145
ACGAGGCA	-0.206
AATGAATA	0.0406
AGCTTTAG	-0.226
AAAACGGC	0.21
ATCCCCGA	0.374
ATCCGCTG	0.189
ATTCCGTC	0.141
AGAATGAT	-0.254
ATCCCGGG	0.299
AACGCGAC	-0.173
CGGAGGTA	0.434
CGGAGGTC	0.122
AGTCCGTA	0.284
ACTCCGTG	0.352
ATCCCCGG	0.379
CTTATCAA	-0.125
AAATAGAT	0.104
GTCTTCCA	-0.125
ACCGTCCA	0.242
ATAAACGA	0.0369
GAACTCAC	-0.221
ATTCCGTG	0.00715
ACTCCGAC	0.425
CTCCCCGA	0.225
AATGGTGA	-0.231
CCCATTAG	-0.361
ATCCCCCG	0.292
CCAGAAAA	-0.296
AGTCCGTC	0.389
CCTCCGTC	0.195
ACTACAGT	-0.24
CTGACAGA	-0.0917
CGGAGCTA	0.446
CGGTTGTA	0.309
ACCAAAAG	-0.113
